Source listed as paper PMC10683472.

Target: IRAK4 (Homo sapiens, UniProt Q9NWZ3)
Sequence (Q9NWZ3 1-460): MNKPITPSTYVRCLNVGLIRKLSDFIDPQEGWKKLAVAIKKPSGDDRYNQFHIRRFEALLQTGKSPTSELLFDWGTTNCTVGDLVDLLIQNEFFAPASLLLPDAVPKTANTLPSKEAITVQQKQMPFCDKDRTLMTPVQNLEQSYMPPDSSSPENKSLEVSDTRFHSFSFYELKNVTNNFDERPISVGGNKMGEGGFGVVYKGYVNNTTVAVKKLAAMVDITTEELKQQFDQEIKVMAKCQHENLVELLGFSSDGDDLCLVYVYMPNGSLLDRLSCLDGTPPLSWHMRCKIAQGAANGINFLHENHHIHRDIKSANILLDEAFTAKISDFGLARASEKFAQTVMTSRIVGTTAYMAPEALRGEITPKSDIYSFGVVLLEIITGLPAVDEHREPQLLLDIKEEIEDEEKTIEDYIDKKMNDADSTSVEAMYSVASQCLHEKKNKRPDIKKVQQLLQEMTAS
Experiment: mRNA display affinity selection against IRAK4, NGS abundance
Type: binding
Design: acids 1-460; NP_057207.2) was purchased from Carna Biosciences; purchased Carna Biosciences (Kobe, Japan)
Details: IRAK4 selection pulldown (-); Top100 selection hits, NGS
Please mark satisfied if the recorded Library fraction is equal to or greater than 0.0003, and not satisfied if it falls below.

Tell me whether Library fraction is at least 0.0003 here: `SLLWKQRVWK` satisfied

And what about the sequence `SVRWKHRIYK` ? not satisfied

Try the sequence `RILWRRRRYH` satisfied

Further, for `SLYWKSRIWR` ? satisfied

Would you mind doing `SVLWKRRIWK` as well? satisfied

Ok, now `RLFWKRRRYA` not satisfied

Same again, this time with `RQRWRSRDYA` not satisfied

Request: `SQRYKQRCYK` satisfied

Now try `SMHRRYITWRWT` . satisfied

Then what about the sequence `CQRWKRRCYM` ? satisfied

Note, next up: `SIFWRRRIYK` satisfied

Okay, and `SMKRPFITWHWT` ? not satisfied

# iterate: `SMKRQFITWRWT` not satisfied

Same read-out for `SMERKAITWLWT` ? not satisfied

// query: `ALLWRRRNYH` not satisfied

Follow-up entry: `SLLWRRRVYK` satisfied

Input `SVFWNRRIYK` not satisfied

`SMLWGRRIYR` , same question. satisfied

How about this sequence: `TLLWKRRNWA` satisfied

// repeat for `SRLWRRRIFQ` and report not satisfied

// same read-out, input: `SLLWKKRMYK` not satisfied

Input `ARLWRRRIYQ` satisfied

Quick one: `TMRWKRRNWA` not satisfied

Record: `AQRWRRRCYH` satisfied

Same thing, different sequence: `STRWKRRNYT` not satisfied

Can you handle `SLLYKRRIYK` next? satisfied

What would you report for `TQRYLSKNYK` ? not satisfied

Can you handle `TMLWKRRIYR` next? satisfied

Ok, now `SLLWRKRIYR` satisfied

Same thing, different sequence: `SMKRQLITWHWT` satisfied

Another sequence to check: `SVLWRKRIYR` satisfied

Another sequence: `SIVWKRRIYR` satisfied

Proceed to `RVLWKKRNYA` not satisfied

Record: `SILWKKHIYK` satisfied

Also, `TQRWKRRNYT` please. satisfied

Repeat with `RLLWKHRLYA` not satisfied

Another sequence: `SLLWKRRICR` not satisfied

Please give the result for `SVCWKRRNCH` too. not satisfied

Also check `SMQRKTIHWKWT` satisfied

Now this one: `SRLWRRRIYH` satisfied

Entry to check: `TADGLILTPWVT` satisfied

What do you have for `SMRRQFITWHWT` ? not satisfied

Moving on to `SVRWKRRDYR` satisfied
